test method notes: Concentration in blood of male Wister rats
Format: in vivo
settings: rat, plasma, 30 mg/kg, 30 mg/kg water suspension, 4 hr.
metric name: concentration at 4 h (ng/mL)
One number for each entry, in ng/mL.

{"molecule": "CN(C(=O)CCCOc1ccc2[nH]c(=O)ccc2c1)C1CCCCC1", "units label": "ng/mL", "val": 1100}
{"molecule": "CCN(C(=O)CCCOc1ccc2[nH]c(=O)ccc2c1)c1ccccc1", "units label": "ng/mL", "val": 920}
{"molecule": "CC1CCCCC1N(C)C(=O)CCCOc1ccc2[nH]c(=O)ccc2c1 (centres unmarked)", "units label": "ng/mL", "val": 940}
{"molecule": "O=C1CCc2cc(OCCCC(=O)N(C3CCCCC3)C3CCCCC3)ccc2N1", "units label": "ng/mL", "val": 1020}

Shift focus to the following entry.
# input molecule: CN(C(=O)CCCOc1cccc2c1CCC(=O)N2)C1CCCCC1 ; wanted: its concentration at 4 h 940

----------
Assign concentration at 12 h to each entry below.
test method notes: Concentration in blood of male Wister rats
Format: in vivo
settings: rat, plasma, 30 mg/kg, 30 mg/kg water suspension, 12 hr.
State the value, then name its unit.

{"compound": "CC1CCCCC1N(C)C(=O)CCCOc1ccc2[nH]c(=O)ccc2c1 (centres unmarked)", "val": "480 ng/mL"}
{"compound": "CN(C(=O)CCCOc1ccc2[nH]c(=O)ccc2c1)C1CCCCC1", "val": "640 ng/mL"}
{"compound": "CN(C(=O)CCCOc1cccc2c1CCC(=O)N2)C1CCCCC1", "val": "520 ng/mL"}
{"compound": "CCN(C(=O)CCCOc1ccc2[nH]c(=O)ccc2c1)c1ccccc1", "val": "280 ng/mL"}

Next compound, please.
Given the compound O=C1CCc2cc(OCCCC(=O)N(C3CCCCC3)C3CCCCC3)ccc2N1 , what is its reported concentration at 12 h? 420 ng/mL

----------
System: rabbit platelet
test method notes: ADP-induced aggregation in rabbit platelets (AG-II Aggregometer)
Type: cell-based
settings: Oryctolagus cuniculus, Platelet; 10^-4 mole; read-out: Inhibition effect on ADP-induced aggregation in rabbit platelet
metric name: inhibition at 100 µM (stock) (%)
Give bare numbers, in %.

Some entries whose results are on file:
{"molecule": "CC(C)NC(=O)CCOc1cccc2c1CCC(=O)N2 [compound 41, reference compound]", "metric name": "inhibition at 100 µM (stock)", "units label": "%", "val": 18}
{"molecule": "CN(C(=O)CCCOc1ccc2c(c1)CCC(=O)N2)C1CCCCC1", "metric name": "inhibition at 100 µM (stock)", "units label": "%", "val": 88.3}
{"molecule": "O=C1CCc2cc(OCCCC(=O)N(C3CCCCC3)C3CCCCC3)ccc2N1", "metric name": "inhibition at 100 µM (stock)", "units label": "%", "val": 86.4}
{"molecule": "CC(=O)OC1CCC(N(C)C(=O)CCCOc2ccc3[nH]c(=O)ccc3c2)CC1 (centres unmarked)", "metric name": "inhibition at 100 µM (stock)", "units label": "%", "val": 91.5}
{"molecule": "O=C(CCCOc1ccc2[nH]c(=O)ccc2c1)N(c1ccccc1)C1CCCCC1", "metric name": "inhibition at 100 µM (stock)", "units label": "%", "val": 82.5}
{"molecule": "CCN(C(=O)CCCOc1ccc2[nH]c(=O)ccc2c1)c1ccccc1", "metric name": "inhibition at 100 µM (stock)", "units label": "%", "val": 82.5}

# return inhibition at 100 µM (stock) for each item in the list
1. CCN1C(=O)CCc2c(OCCCC(=O)NCc3ccccc3)cccc21 [compound 44, reference compound]
2. CCOC(=O)CCCOc1ccc2[nH]c(=O)ccc2c1 [compound 34, 6-(3-Ethoxycarbonylpropoxy)carbostyril, reference compound]

1. 14
2. 100
